All values here come from paper PMC9967645.

experiment: Pharmacokinetic DDI study in rats, oral Y101 and/or ETV; assay type: in vivo, Sprague–Dawley (SD) rats; settings: Sprague-Dawley, rat, oral ETV 0.06 mg/kg alone, plasma, n = 4
measured_quantity: AUC(0-inf) (ng·h/mL)
// return numeric value only (unit: ng·h/mL, not printed)

Q) So what does the record say about AUC(0-inf) for C=C1[C@H](CO)[C@@H](O)C[C@@H]1n1cnc2c(=O)[nH]c(N)nc21 ?
A) 8.49

* * *

assay: Pharmacokinetic DDI study in rats, oral Y101 and/or ETV; assay type: in vivo, Sprague–Dawley (SD) rats; settings: Sprague-Dawley, rat, plasma, oral Y101 60 mg/kg + ETV 0.06 mg/kg, n = 4
measured_quantity: Tmax (h)
Express it in h; write the number only.

Worked set:
CN(C)CCOc1ccc(CC(NC(=O)c2ccccc2)C(=O)O)cc1 (stereo not shown) [M8]: 1.5
CN(C)CCOc1ccc(C[C@H](NC(=O)c2ccccc2)C(=O)N[C@H](CO)Cc2ccccc2)cc1.Cl [Y101]: 0.313
C[N+](C)([O-])CCOc1ccc(CC(NC(=O)c2ccccc2)C(=O)O)cc1 (stereo not shown) [M9]: 2.5

Attention now turns to another entry.
Q) Fill in: Tmax of C=C1[C@H](CO)[C@@H](O)C[C@@H]1n1cnc2c(=O)[nH]c(N)nc21 [ETV, entecavir] is ___
A) 0.875

* * *

assay: Pharmacokinetic DDI study in rats, intravenous Y101 and/or ETV; format: in vivo, Sprague–Dawley (SD) rats; settings: Sprague-Dawley, rat, i.v. Y101 25 mg/kg alone, plasma, n = 4
measured_quantity: C0 (µg/mL)
Write the answer as a number in µg/mL, unit excluded.

Q) Quick check: C0 of CN(C)CCOc1ccc(C[C@H](NC(=O)c2ccccc2)C(=O)N[C@H](CO)Cc2ccccc2)cc1.Cl [Y101] ?
A) 10.6

* * *

assay: Pharmacokinetic DDI study in rats, intravenous Y101 and/or ETV; type: in vivo, Sprague–Dawley (SD) rats; conditions: Sprague-Dawley, rat, i.v. Y101 25 mg/kg alone, plasma, n = 4
Known AUC(0-t) of a selection of compounds
Numeric answer plus unit only.

C[N+](C)([O-])CCOc1ccc(CC(NC(=O)c2ccccc2)C(=O)O)cc1 (stereo not drawn) [M9]: 547 ng·h/mL

Q) Using the record for CN(C)CCOc1ccc(C[C@H](NC(=O)c2ccccc2)C(=O)N[C@H](CO)Cc2ccccc2)cc1.Cl [Y101] , report its AUC(0-t).
A) 2350 ng·h/mL

Q) Look up AUC(0-t): CN(C)CCOc1ccc(CC(NC(=O)c2ccccc2)C(=O)O)cc1 (stereo not drawn) [M8]
A) 5830 ng·h/mL

* * *

assay: Pharmacokinetic DDI study in rats, intravenous Y101 and/or ETV; type: in vivo, Sprague–Dawley (SD) rats; conditions: Sprague-Dawley, rat, plasma, i.v. ETV 0.06 mg/kg alone, n = 4, read-out: CLp (plasma clearance) (converted)
measured_quantity: clearance (mL/min/kg)
Reply numerically in mL/min/kg, unit not repeated.

Q) Which measured clearance value corresponds to C=C1[C@H](CO)[C@@H](O)C[C@@H]1n1cnc2c(=O)[nH]c(N)nc21 [ETV, entecavir] ?
A) 107

* * *

test: Pharmacokinetic DDI study in rats, intravenous Y101 and/or ETV; format: in vivo, Sprague–Dawley (SD) rats; conditions: Sprague-Dawley, rat, i.v. ETV 0.06 mg/kg alone, plasma, n = 4
measured_quantity: AUC(0-inf) (ng·h/mL)
Give the value, in units of ng·h/mL, as a plain number.

Q) Quick one: AUC(0-inf) of C=C1[C@H](CO)[C@@H](O)C[C@@H]1n1cnc2c(=O)[nH]c(N)nc21 ?
A) 9.79

* * *

assay: Pharmacokinetic DDI study in rats, oral Y101 and/or ETV; assay type: in vivo, Sprague–Dawley (SD) rats; settings: Sprague-Dawley, rat, oral Y101 60 mg/kg alone, plasma, n = 4
measured_quantity: Cmax
Form entry: enter the amount, then its unit.

Q) Consider the molecule CN(C)CCOc1ccc(C[C@H](NC(=O)c2ccccc2)C(=O)N[C@H](CO)Cc2ccccc2)cc1.Cl and give its measured Cmax.
A) 668 ng/mL

Q) Request the reported Cmax associated with C[N+](C)([O-])CCOc1ccc(CC(NC(=O)c2ccccc2)C(=O)O)cc1 (stereo not drawn)
A) 144 ng/mL

Q) // query Cmax value for entry CN(C)CCOc1ccc(CC(NC(=O)c2ccccc2)C(=O)O)cc1 (stereo not drawn)
A) 2030 ng/mL

* * *

experiment: Pharmacokinetic study in rats, intravenous Y101 with or without PRO; type: in vivo, Sprague–Dawley (SD) rats; settings: male, Sprague-Dawley, rat, plasma, iv, 25 mg/kg, i.v. Y101 25 mg/kg alone, n = 3
measured_quantity: AUC(0-t) (ng·h/mL)
Just the number please, in ng·h/mL, no unit attached.

Q) # query: AUC(0-t) of entry C[N+](C)([O-])CCOc1ccc(CC(NC(=O)c2ccccc2)C(=O)O)cc1 (stereo not drawn)
A) 335

Q) Which measured AUC(0-t) value corresponds to CN(C)CCOc1ccc(CC(NC(=O)c2ccccc2)C(=O)O)cc1 (stereo not drawn) ?
A) 8300

Q) Find the recorded AUC(0-t) belonging to CN(C)CCOc1ccc(C[C@H](NC(=O)c2ccccc2)C(=O)N[C@H](CO)Cc2ccccc2)cc1.Cl and report it.
A) 2840

* * *

Experiment: Pharmacokinetic DDI study in rats, intravenous Y101 and/or ETV
Assay type: in vivo, Sprague–Dawley (SD) rats
Conditions: Sprague-Dawley, rat, plasma, i.v. ETV 0.06 mg/kg alone, n = 4
Description: Additionally, DDI between Y101 and ETV was investigated by monitoring time-course plasma Y101 in rats with surgery as described above. Animals were randomly placed into three groups (n = 4): (1) Y101 alone (25 mg/kg for intravenous treatment and 60 mg/kg for oral administration); (2) ETV (0.06 mg/kg); and (3) Y101 (25 mg/kg for intravenous treatment and 60 mg/kg for oral administration) + ETV (0.06 mg/kg). ETV was dissolved in saline at concentration of 12 µg/mL. […]
measured_quantity: Vd (L/kg)
Write down the numeric answer in L/kg and omit the unit.

Q) Endpoint output: Vd of C=C1[C@H](CO)[C@@H](O)C[C@@H]1n1cnc2c(=O)[nH]c(N)nc21 [ETV, entecavir] . Value?
A) 11.7

* * *

experiment: Pharmacokinetic DDI study in rats, oral Y101 and/or ETV; assay type: in vivo, Sprague–Dawley (SD) rats; conditions: Sprague-Dawley, rat, oral ETV 0.06 mg/kg alone, plasma, n = 4
measured_quantity: AUC(0-t) (ng·h/mL)
Report the value in ng·h/mL with no unit label.

Q) Which AUC(0-t) reading was recorded for the compound C=C1[C@H](CO)[C@@H](O)C[C@@H]1n1cnc2c(=O)[nH]c(N)nc21 [ETV, entecavir] ?
A) 8.15

* * *

Assay: Pharmacokinetic DDI study in rats, intravenous Y101 and/or ETV
Format: in vivo, Sprague–Dawley (SD) rats
Conditions: Sprague-Dawley, rat, plasma, i.v. Y101 25 mg/kg alone, n = 4
Method: Additionally, DDI between Y101 and ETV was investigated by monitoring time-course plasma Y101 in rats with surgery as described above. Animals were randomly placed into three groups (n = 4): (1) Y101 alone (25 mg/kg for intravenous treatment and 60 mg/kg for oral administration); (2) ETV (0.06 mg/kg); and (3) Y101 (25 mg/kg for intravenous treatment and 60 mg/kg for oral administration) + ETV (0.06 mg/kg). ETV was dissolved in saline at concentration of 12 µg/mL. […]
measured_quantity: Vd (L/kg)
Dear colleague, please return just the value in L/kg, with no unit written.

Q) Which Vd reading was recorded for the compound CN(C)CCOc1ccc(C[C@H](NC(=O)c2ccccc2)C(=O)N[C@H](CO)Cc2ccccc2)cc1.Cl ?
A) 10.6

* * *

experiment: Pharmacokinetic DDI study in rats, intravenous Y101 and/or ETV; assay type: in vivo, Sprague–Dawley (SD) rats; conditions: Sprague-Dawley, rat, plasma, i.v. Y101 25 mg/kg + ETV 0.06 mg/kg, n = 4
The entries below are paired with their reported Tmax.
Numbers only; they are read as min.

C[N+](C)([O-])CCOc1ccc(CC(NC(=O)c2ccccc2)C(=O)O)cc1 (centres unmarked): 75

// next item, Tmax requested
Q) Given the entry CN(C)CCOc1ccc(CC(NC(=O)c2ccccc2)C(=O)O)cc1 (centres unmarked) , report its measured Tmax.
A) 26.3

* * *

Entries and their Cmax values follow.
experiment: Pharmacokinetic DDI study in rats, oral Y101 and/or ETV; assay type: in vivo, Sprague–Dawley (SD) rats; details: Sprague-Dawley, rat, oral Y101 60 mg/kg + ETV 0.06 mg/kg, plasma, n = 4
Could you give me the number in ng/mL? Just the number is fine.

Recorded results for 3 compounds are shown here.
C[N+](C)([O-])CCOc1ccc(CC(NC(=O)c2ccccc2)C(=O)O)cc1 (stereo not shown): 127
CN(C)CCOc1ccc(CC(NC(=O)c2ccccc2)C(=O)O)cc1 (stereo not shown): 1980
CN(C)CCOc1ccc(C[C@H](NC(=O)c2ccccc2)C(=O)N[C@H](CO)Cc2ccccc2)cc1.Cl: 843

Q) Cmax for C=C1[C@H](CO)[C@@H](O)C[C@@H]1n1cnc2c(=O)[nH]c(N)nc21 ?
A) 2.94
